TEST SUMMARY: Toxicity liver stage against HepG2, at 10uM
Format: cell-based
Parameters: test concentration 10 uM, cell line HepG2-A16-CD81EGFP
COND: human, HepG2-A16-CD81EGFP cells; read-out: INHIBITION
Here, each record is paired with measured cytotoxicity at 10 µM data.
// note: answer is a bare numeric in %

Reference set, count: 5
compound="COCC(O)CNc1ccc(C#N)cc1C(F)(F)F (stereo unspecified)" obs_value=13.3
compound=CN(C)S(=O)(=O)N1CC[C@@H]2CN(Cc3cnn(C)c3)C[C@@H]2C1 obs_value=13.5
compound="Cc1ccc(C(C(=O)NCCN2CCC(CO)CC2)N(C)C)cc1 (stereo unspecified)" obs_value=-10.2
compound=COc1cc(F)ccc1N1CCN(Cc2nc(C)c(C)o2)CC1 obs_value=10.7
compound=Cc1cc(-c2nccs2)nc(C2CCN(Cc3ccccn3)CC2)n1 obs_value=7.73

Qu. I'd like to know its cytotoxicity at 10 µM. The compound in question is O=S(=O)(Cc1c(F)cccc1Cl)Cc1nnnn1C1CC1
Ans. -5.19

Qu. Follow-up item: CCn1nc(CC(C)C)cc1C(=O)N1CCC2(CC1)[C@H](O)C[C@@H]2O
Ans. -7.2

Qu. Further, for CSCC(CCO)NC(=O)Nc1ccc(C)cc1Br (stereo unspecified) ?
Ans. -11.8

Qu. Try this compound next: CC(C)C1CN(S(=O)(=O)N(C)C)CCCN1Cc1ccc(F)cc1 (stereo unspecified)
Ans. 5.17

###

# reported cytotoxicity at 10 µM; entries follow
TEST SUMMARY: Toxicity liver stage against HepG2, at 10uM
Assay type: cell-based
Design: test concentration 10 uM, cell line HepG2-A16-CD81EGFP
COND: human, HepG2-A16-CD81EGFP cells; read-out: INHIBITION
Please respond with the number in % and leave the unit unwritten.

Some molecules with recorded cytotoxicity at 10 µM:
molecule=O=C(c1cccs1)N1C[C@H]2CCC[C@@]2(COCC2CCOCC2)C1 obs_value=-68.9
molecule=Cc1ccc(S(=O)(=O)NCCOc2ccc3nnc(C)n3n2)s1 obs_value=-6.26
molecule="Cc1nc(C)n(CC2CN(Cc3ccccc3C#N)CCO2)n1 (centres undefined)" obs_value=-8.8
molecule=O=C(c1ccc(-n2ccnc2)cc1)N1CCCC1 obs_value=-7.55
molecule=CN(Cc1ccc(Cl)c(Cl)c1)C(=O)CNC(N)=O obs_value=-8.87
molecule=O=C(CCc1nc2cc(Br)cnc2[nH]1)NCCCN1CCOCC1 obs_value=-2.67
molecule=COCc1nn(CC2CC2)c2c1CN(Cc1ccco1)CC2 obs_value=2.35
molecule="O=C(NC1CCC(O)CC1)c1cnc2c(cnn2C2CCCC2)c1 (centres undefined)" obs_value=-3.79
molecule="Cc1nn(C)c(C)c1CCC(=O)N1CCCOC(Cn2cccn2)C1 (centres undefined)" obs_value=-2.86
molecule="Cc1ncsc1CN1CCN(C2CCOCC2)CC(C(N)=O)C1 (centres undefined)" obs_value=14.4

Qu. Sample Cn1cc(CN2CCC3(CC2)CCN(Cc2ccccn2)CC3)cn1 — what was its cytotoxicity at 10 µM?
Ans. 9.84

Qu. Another: O=C(NCc1ccccc1Cn1cncn1)C1CCCCC1
Ans. -2.06

Qu. Moving on to the next molecule: CCS(=O)(=O)NC1CCc2c(ccc(=O)n2CC2CC2)C1 (centres undefined)
Ans. -67.2

Qu. One more molecule: Cc1ccc(NC2CCN(C(=O)CCc3ccccc3)CC2)nn1
Ans. -10.5

Qu. Param item: Cc1cccc2cc(CN3CCC(O)(CN4CCCC4)CC3)c(=O)[nH]c12
Ans. -14.9

Qu. Now the molecule CCOC[C@@H]1CC[C@H]2[C@H](CCN2C(=O)c2cnccn2)O1
Ans. -10.6

Qu. Another: CNc1cc(C)nc(N2Cc3cnn(Cc4ccc(F)cc4)c3C2)n1
Ans. 4.03

Qu. Same lookup for Cn1nc(C(=O)NCc2cccnc2)c2c1CCS(=O)(=O)C2 , please.
Ans. 6.09

Qu. What do you have for CCOCCCNC(=O)c1cn(CC)nc1C ?
Ans. 5.37

Qu. Moving on to the next molecule: CN(C)CCO[C@@H]1CC[C@H]2[C@H]1OCCN2C(=O)COc1ccccc1
Ans. -4.84

Qu. CN(CC1CCOC1)c1ncc(Br)cn1 (centres undefined) ?
Ans. 4.23

Qu. Same question for CN(c1ccncn1)C1CC2(CCN(C(=O)c3ccsc3)C2)C1 (centres undefined) please.
Ans. 4.02

Qu. Next: Cc1ccc(CN2CCCC(c3nn(C)c4nccnc34)C2)s1 (centres undefined)
Ans. -10.6

###

TEST SUMMARY: Toxicity liver stage against HepG2, at 10uM
Type: cell-based
Parameters: test concentration 10 uM, cell line HepG2-A16-CD81EGFP
COND: human, HepG2-A16-CD81EGFP cells; read-out: INHIBITION
ASSAY METRIC: cytotoxicity at 10 µM (%)
The reply should be a number in %, with the unit left off.

compound=CCOCCCNC(=O)c1nn(CC)cc1Cl obs_value=2.06
compound=COC(=O)CN(Cc1ccccc1C)C(=O)CCNC(=O)C(C)(C)C obs_value=12.9
compound=CCCN1CCC(Cc2noc(-c3ncccc3C)n2)CC1 obs_value=0.0119

Qu. Quick check: cytotoxicity at 10 µM of O=C(c1ccc2ccccc2c1)C1CCCN(C(=O)Cn2cnnn2)C1 (stereo unspecified) ?
Ans. 1.54

Qu. Try this compound too: CC(CO)NC(=O)Nc1ccc(COC2CCCC2)cc1 (stereo unspecified)
Ans. -7.41

Qu. Here is the next compound: CCOC(=O)N[C@H]1C[C@@H](C(=O)NCCc2cccc(Cl)c2)N(C)C1
Ans. -3.79

Qu. Another compound to look at: CC(C)CNC(=O)c1ccc2nnc(C3CCN(S(C)(=O)=O)C3)n2c1 (stereo unspecified)
Ans. 5.09

Qu. Same question for Cn1cnnc1C1CCCN(C(=O)NCCCn2cccn2)C1 (stereo unspecified) please.
Ans. -5.42

Qu. Same lookup for Cn1ncc2c1CN(Cc1ccc(F)cc1)CC2COCC1CC1 (stereo unspecified) , please.
Ans. 9.55

Qu. Also CCS(=O)(=O)N1CCc2c(COC)cncc2C1 , if possible.
Ans. -99

Qu. Entry CC(C)n1ccnc1CN1CCOC(CCc2ccccc2)C1 (stereo unspecified) please
Ans. -132

###

TEST SUMMARY: Toxicity liver stage against HepG2, at 10uM
Type: cell-based
Set-up: test concentration 10 uM, cell line HepG2-A16-CD81EGFP
COND: human, HepG2-A16-CD81EGFP cells; read-out: INHIBITION
ASSAY METRIC: cytotoxicity at 10 µM (%)
Expressed in %, but write only the number.

compound=O=C(NCCn1nc(-n2cncn2)ccc1=O)c1ccsc1 assay_metric="cytotoxicity at 10 µM" obs_value=1.99

Qu. cytotoxicity at 10 µM for CCc1ccc(NC(=O)c2n[nH]c(-n3cnnc3)n2)cc1 ?
Ans. 4.68

Qu. What do we get for COc1ccc(CN(C)C(=O)CCC(=O)c2cccs2)c(OC)c1OC ?
Ans. -10.7

Qu. Note, next up: CC(C)Nc1oc(-c2ccc(S(=O)(=O)N(C)C)o2)nc1C#N
Ans. -11.6

Qu. Request: CCc1nc(C)ncc1C(=O)N1CC(C)CN(C)c2ccccc21 (stereo not drawn)
Ans. 10.7

Qu. Same again, this time with CC(C)N1CC(C(=O)NCc2cccnc2-n2cccn2)CC1=O (stereo not drawn)
Ans. -10.8

Qu. Another compound to look at: Cc1nc(C2CCCN(C(=O)CO)C2)cc(N2CCOCC2)n1 (stereo not drawn)
Ans. -12.9

Qu. Consider next the compound CCC(C#N)NC(=O)c1sccc1OC (stereo not drawn) in the same way.
Ans. 1.88

###

Quick reference for cytotoxicity at 10 µM among some molecules
TEST SUMMARY: Toxicity liver stage against HepG2, at 10uM
Format: cell-based
Design: test concentration 10 uM, cell line HepG2-A16-CD81EGFP
COND: human, HepG2-A16-CD81EGFP cells; read-out: INHIBITION
Give your result in % as a bare value.

Qu. Item under review: CC(NCc1nnc2n1CCCC2)C(=O)N1CCc2sccc2C1 (stereo not given) . Reported cytotoxicity at 10 µM?
Ans. -26.2

###

TEST SUMMARY: Toxicity liver stage against HepG2, at 10uM
Format: cell-based
Set-up: test concentration 10 uM, cell line HepG2-A16-CD81EGFP
COND: human, HepG2-A16-CD81EGFP cells; read-out: INHIBITION
Some compounds, each annotated with its measured cytotoxicity at 10 µM.
Value and unit, in that order.

compound="Cc1nc(C)n(CC2CCCN(c3ncnc4ccccc34)C2)n1 (centres undefined)" obs_value=17.4%
compound=c1ccc(N2CCC(c3ccncc3)CC2)cc1 obs_value=8.45%

Qu. I'd like to know its cytotoxicity at 10 µM. The compound in question is O=C(CC1CCCC1)N1C[C@H](OCc2ccncc2)[C@H]2OCCC[C@H]21
Ans. 2.75%

Qu. Repeat with CN(C)C(=O)c1cccnc1SCc1ccccc1Cl
Ans. 3.25%

Data credit: ChEMBL document CHEMBL4513216
